measurement_target: hMC4R (Homo sapiens, UniProt P32245)
Construct: Flag; expressed in transfected cells
Sequence (P32245 whole entry, looked up): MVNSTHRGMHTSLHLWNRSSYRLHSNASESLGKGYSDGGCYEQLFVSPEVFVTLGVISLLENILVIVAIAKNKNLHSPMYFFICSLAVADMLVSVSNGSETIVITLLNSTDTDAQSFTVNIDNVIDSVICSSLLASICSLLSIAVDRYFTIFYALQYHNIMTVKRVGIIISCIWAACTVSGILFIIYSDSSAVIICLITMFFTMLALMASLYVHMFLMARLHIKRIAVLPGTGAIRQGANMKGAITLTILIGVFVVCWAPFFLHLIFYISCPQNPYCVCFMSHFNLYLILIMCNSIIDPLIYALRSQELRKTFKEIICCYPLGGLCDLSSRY
assay_info: cAMP Signaling | EC50 (nM)
Square brackets hold non-standard residues; d marks the D form. Peptide text beside a SMILES is read from it.
measurement_name: pEC50
Please report pEC50 as the negative decimal logarithm of the molar concentration, giving only the number.

As a guide, the following entries are already answered.
N=C(N)NCCC[C@H](NC(=O)[C@@H](Cc1ccccc1)NC(=O)[C@H](Cc1c[nH]cn1)NC(=O)COCC(=O)NCCCOCCOCCOCCCN)C(=O)N[C@@H](Cc1c[nH]c2ccccc12)C(N)=O    8.70
CC(=O)N[C@@H](Cc1c[nH]cn1)C(=O)N[C@H](Cc1ccccc1)C(=O)N[C@@H](CCCNC(=N)N)C(=O)N[C@@H](Cc1c[nH]c2ccccc12)C(=O)N1CCC[C@H]1C(=O)NCC(=O)N1CCC[C@H]1C(=O)NCC(=O)N1CCC[C@H]1C(=O)NCC(=O)N1CCC[C@H]1C(=O)NCC(=O)N1CCC[C@H]1C(=O)NCC(=O)N1CCC[C@H]1C(=O)NCC(N)=O [CJL5-35-1, Ac-His-DPhe-Arg-Trp-(Pro-Gly)6-NH2] (Ac-H[dF]RWPGPGPGPGPGPG-NH2)    8.26

Okay, now this compound:
Query :: Form field: reported pEC50 of CC(=O)N[C@@H](Cc1c[nH]cn1)C(=O)N[C@H](Cc1ccccc1)C(=O)N[C@@H](CCCNC(=N)N)C(=O)N[C@@H](Cc1c[nH]c2ccccc12)C(=O)NCCCOCCOCCOCCCNC(=O)COCC(=O)NCCCOCCOCCOCCCNC(=O)COCC(=O)N[C@@H](Cc1c[nH]cn1)C(=O)N[C@H](Cc1ccccc1)C(=O)N[C@@H](CCCNC(=N)N)C(=O)N[C@@H](Cc1c[nH]c2ccccc12)C(N)=O
Result :: 8.92
